- studySystem: T1, activated MMP13 (species not stated) (Homo sapiens (Human), UniProt P45452 104-471, Biotinylated in the TIMP-2 competition ELISA (sites not given). Activated form: pro-peptide removed.)
- T1 construct: campaign 4 ELISA; Probably human
- experiment: TIMP-2 competition ELISA; Nanobody pre-incubated with 1.26 nM activated MMP13-biotin, binding to captured TIMP-2
testReadout: IC50 (nM)
Respond numerically; units are nM and should not be typed.

Report IC50 for C0101PMP516G08 (VHH, Profile 2 Nanobody; also called C0101516G08) VHH: DVQLVESGGGLVQPGGSLRLSCAGSGSIFRINVMAWYRQAPGKQRELVAAITSGGTTNYADSVKGRFTISRDNSKNTVYLQMNSLRPEDTAVYYCYADIGWPYVLDYDFWGQGTLVTVSS please.
0.5

Report IC50 for C0101PMP520C04 (VHH, Profile 2 Nanobody) VHH: DVQLVESGGGLVQPGGSLRLSCAASGRTFSSYAMGWFRQAPGKEREFVAAISWSGGSTYYSDSVKGRFTISRDNSKNTVYLQMNSLRPEDTAVYYCTAARGGVAGTDGPLGDYNYWGQGTLVTVSS please.
8

Report IC50 for C0101PMP521F02 (VHH, Profile 2 Nanobody) VHH: DVQLVESGGGLVQPGGSLRLSCVASGLTFSSYAMGWFRQAPGKEREFVAAISWSGGRTYYADSVKGRFTISRDNSKNTVYLQMNSLRPEDTAVYYCTAARGPGSVGPSEEYNYWGQGTLVTVSS please.
8.5

Report IC50 for C0101PMP529G11 (VHH, Profile 2 Nanobody) VHH: DVQLVESGGGLVQPGGSLRLSCAASGSIFRINAMGWYRQAPGKQRELVAAIISGGTTYYADSVKGRFTISRDNSKNTVYLQMNSLRPEDTAVYYCYADIGWPYVLDYDFWGQGTLVTVSS please.
7.9

Report IC50 for C0101PMP063F01 (VHH, Profile 2 Nanobody) VHH: EVQLVESGGGLVQPGGSLRLSCSASTGIFRINTMGWHRQAPGKQRDLVATFTSDDNTKYADSVKGRFTISRDNAENTVYLQMNDLKPEDTAVYYCHATTVMYDSNSPDYWGQGTQVTVSS please.
177

Report IC50 for C0101PMP520B06 (VHH, Profile 2 Nanobody) VHH: DVQLVESGGGLVQPGGSLRLSCAASGRTFSSYAMGWFRQAPGKEREFVAAISWGGGSTYYSDSVKGRFTISRDNSKNTVYLQMNSLRPEDTAVYYCTAALGSTGSGSTPVPEYRYWGQGTLVTVSS please.
9.3

Report IC50 for C0101PMP519E04 (VHH, Profile 2 Nanobody) VHH: DVQLVESGGGLVQPGGSLRLSCVASGPTFSDYAMGWFRQAPGKEREFVAAISWSGGSTYYADSVKGRFTISRDNSKNTVYLQMNSLRPEDTAVYYCTAARGGGYRASGGPLSEYNYWGQGTLVTVSS please.
5.5

Report IC50 for C0101PMP529C12 (VHH, Profile 2 Nanobody; also called C0101529C12) VHH: DVQLVESGGGLVQPGGSLRLSCVASGSIFSINAMGWYRQAPGKQRELVAAISSGGSTYYADSVKGRFTISRDNSKNTVYLQMNSLRPEDTAVYYCNAAVDASRGLPYELYYYWGQGTLVTVSS please.
0.4
